// provenance: PubChem BioAssay AID1893

// reported percent response per item
Tested on: MEKK2 (MAP3K2) mutant PB1 domain binding MEK5, human
Protocol Description: mutant MEKK2 PB1-MEK5 binding signal retest – biochemical, single concentration, multiplex bead flow cytometry, confirmation (AID 1893);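 further: higher means compound restores mutant binding toward wildtype level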
Experimental Conditions: Alexa488-MEK5 binding to MEKK2 mutant, at 10 µM, active compounds read high
In all, about 5,900 compounds went through this assay and about 120 (2%) were called active. A selection follows.
Hi! Could you send only the number? It should be in %, unit omitted.

// solved cases for percent response follow
CCNC(=O)CSc1nc(-c2ccccc2)cs1    -1
Cc1ccc(S(=O)(=O)NC(=O)N2CCCC(C)(C)C2)cc1    -1
C=CCn1c(P(C)(=O)O)nc2ccccc21    -4
CCO[C@H]1OC(C(=O)N2CCOCC2)=C[C@@H](c2ccc3c(c2)OCO3)[C@@H]1CCCO    4
CCOc1ccc(S(=O)(=O)N(CC(=O)O)c2ccccc2)cc1    1

Query :: I am curious: what percent response value has been reported for `O=C(O)/C(=C/c1cccnc1)NC(=O)c1ccccc1` ?
Result :: 1

Query :: Could you share which percent response value was measured for `Cn1c(=NC(=O)CSCC(=O)N2CCCCC2)sc2ccccc21` ?
Result :: 8

Query :: Which percent response value is on record for `COc1cc(Br)c(-c2sc(Nc3ccccc3)n[n+]2-c2ccccc2)cc1OC` ?
Result :: 14
